- assayed-system: TRBV9+TRAV26 antigen
- experimental-details: BLI (OctetRed 96), antigen on AR2G sensors, antibody 126-2 nM, 1:1 model; run 2
Measured pKd by item
The quantity pKd is defined as the negative base-10 logarithm of the molar concentration.

1. anti-TRBV9-1 monoclonal antibody (antibody, human IgG1, kappa, V domains shown) VH: QIQLVQSGPELREPGESVKLSCKASGYTFTDYLVHWVKQAPGKGLKWMGWINTYTGTPTYADDFEGRFVFSLEASASTANLQISNLKNEDTATYFCARSWRRGLRGLGFDYWGQGVFVTVSS VL: DVQMTQSPYNLAASPGESVSINCKASKSINKYLAWYQQKPGKPNKLLIYDGSTLQSGIPSRFSGSGSGTDFTLTIRGLEPEDFGLYYCQQHNEYPPTFGAGTKLELKR : 9.56

Here is another binder to look at.
query: Suppose we examine the binder anti-TRBV9-3 monoclonal antibody (antibody, human IgG1, kappa, V domains shown) VH: QIQLVQSGPELREPGESVKLSCKASGYTFTDYLVHWVKQAPGKGLKWMGWINTYTGTPTYADDFEGRFVFSLEASASTANLQISNLKNEDTATYFCARSWRRGIRGLGFDYWGQGVFVTVSS VL: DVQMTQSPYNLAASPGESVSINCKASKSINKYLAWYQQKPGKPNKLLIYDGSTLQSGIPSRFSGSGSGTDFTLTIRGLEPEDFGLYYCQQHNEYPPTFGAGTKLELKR ; what pKd value has been reported?
result: 9.24

Provenance of the data: patent EP4810611A2
